Could you please report measured pEC50 for the items listed next?
SYSTEM: Toll-like receptor 1/2 (Homo sapiens, UniProt O60603+Q15399)
Sequence (O60603 whole entry): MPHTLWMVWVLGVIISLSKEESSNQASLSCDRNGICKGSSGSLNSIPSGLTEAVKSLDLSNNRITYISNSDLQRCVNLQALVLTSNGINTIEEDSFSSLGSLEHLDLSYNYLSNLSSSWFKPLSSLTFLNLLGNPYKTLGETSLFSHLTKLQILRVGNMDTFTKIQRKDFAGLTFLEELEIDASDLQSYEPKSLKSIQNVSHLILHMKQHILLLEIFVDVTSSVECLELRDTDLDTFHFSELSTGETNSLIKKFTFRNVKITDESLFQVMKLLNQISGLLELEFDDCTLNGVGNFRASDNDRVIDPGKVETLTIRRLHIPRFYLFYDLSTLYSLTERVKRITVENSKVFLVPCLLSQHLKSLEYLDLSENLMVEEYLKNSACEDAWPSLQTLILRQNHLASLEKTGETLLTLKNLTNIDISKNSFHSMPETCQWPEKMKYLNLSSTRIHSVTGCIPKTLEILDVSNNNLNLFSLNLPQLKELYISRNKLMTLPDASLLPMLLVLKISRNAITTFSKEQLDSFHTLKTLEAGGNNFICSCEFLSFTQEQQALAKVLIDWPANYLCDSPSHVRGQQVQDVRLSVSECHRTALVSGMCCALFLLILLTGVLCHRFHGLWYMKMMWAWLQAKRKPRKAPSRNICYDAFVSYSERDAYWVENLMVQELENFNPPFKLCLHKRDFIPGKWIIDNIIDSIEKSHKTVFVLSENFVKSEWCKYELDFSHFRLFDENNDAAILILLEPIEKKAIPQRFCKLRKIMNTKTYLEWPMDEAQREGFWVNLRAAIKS
Sequence (Q15399 whole entry): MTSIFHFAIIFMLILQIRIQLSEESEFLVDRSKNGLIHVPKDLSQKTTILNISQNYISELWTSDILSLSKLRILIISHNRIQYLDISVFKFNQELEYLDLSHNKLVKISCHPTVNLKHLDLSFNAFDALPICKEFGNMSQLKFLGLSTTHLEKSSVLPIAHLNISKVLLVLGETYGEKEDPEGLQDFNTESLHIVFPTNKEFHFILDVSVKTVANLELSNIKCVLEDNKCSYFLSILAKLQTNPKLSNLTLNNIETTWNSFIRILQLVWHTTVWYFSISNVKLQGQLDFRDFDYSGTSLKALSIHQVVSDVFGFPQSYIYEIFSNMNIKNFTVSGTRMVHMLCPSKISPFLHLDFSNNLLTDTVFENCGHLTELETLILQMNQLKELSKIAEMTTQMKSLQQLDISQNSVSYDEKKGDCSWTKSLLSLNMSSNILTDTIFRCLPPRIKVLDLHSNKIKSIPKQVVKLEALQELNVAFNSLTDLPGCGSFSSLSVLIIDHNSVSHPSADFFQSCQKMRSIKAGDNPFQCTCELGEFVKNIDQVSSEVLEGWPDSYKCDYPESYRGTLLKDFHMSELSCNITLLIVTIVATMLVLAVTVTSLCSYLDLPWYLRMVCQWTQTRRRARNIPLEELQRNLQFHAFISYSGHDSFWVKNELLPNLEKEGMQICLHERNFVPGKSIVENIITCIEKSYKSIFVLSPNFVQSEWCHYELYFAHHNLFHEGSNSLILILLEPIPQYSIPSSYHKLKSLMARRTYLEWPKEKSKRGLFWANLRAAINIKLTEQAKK
ASSAY_NOTES: Agonist activity at TLR2/TLR1 in human THP-1 cells
Assay type: cell-based
One number for each entry, as −log10 of the molar value.

SUBSTANCE_SMILES	SYSTEM	PROPERTY_MEASURED	QUANTITATIVE_READOUT
CCCCCCCCCCCCCCNC(=O)[C@@H]1CN(C(=O)c2ccc(C(=O)N3C[C@@H](C(=O)N[C@H]4C[C@@H]4c4ccccc4)[C@H](C(=O)N[C@@H]4C[C@H]4c4ccccc4)C3)cc2)C[C@H]1C(=O)NCCCCCCCCCCCCCC	Toll-like receptor 1/2 (Homo sapiens, UniProt O60603+Q15399)	pEC50	9.77
CCCCCCCCCCCCNC(=O)[C@@H]1CN(C(=O)c2ccc(C(=O)N3C[C@@H](C(=O)N[C@H]4C[C@@H]4c4ccccc4)[C@H](C(=O)N[C@@H]4C[C@H]4c4ccccc4)C3)cc2)C[C@H]1C(=O)NCCCCCCCCCCCC	Toll-like receptor 1/2 (Homo sapiens, UniProt O60603+Q15399)	pEC50	8.89
CCCCCCCCCCNC(=O)[C@@H]1CN(C(=O)c2ccc(C(=O)N3C[C@@H](C(=O)N[C@H]4C[C@@H]4c4ccccc4)[C@H](C(=O)N[C@@H]4C[C@H]4c4ccccc4)C3)cc2)C[C@H]1C(=O)N[C@H]1C[C@@H]1c1ccccc1	Toll-like receptor 1/2 (Homo sapiens, UniProt O60603+Q15399)	pEC50	10.00
CCCCCCNC(=O)[C@@H]1CN(C(=O)c2ccc(C(=O)N3C[C@@H](C(=O)NCCCCCC)[C@H](C(=O)N[C@@H]4C[C@H]4c4ccccc4)C3)cc2)C[C@H]1C(=O)N[C@@H]1C[C@H]1c1ccccc1	Toll-like receptor 1/2 (Homo sapiens, UniProt O60603+Q15399)	pEC50	9.10
CCCCNC(=O)[C@@H]1CN(C(=O)c2ccc(C(=O)N3C[C@@H](C(=O)N[C@H]4C[C@@H]4c4ccccc4)[C@H](C(=O)N[C@@H]4C[C@H]4c4ccccc4)C3)cc2)C[C@H]1C(=O)N[C@H]1C[C@@H]1c1ccccc1	Toll-like receptor 1/2 (Homo sapiens, UniProt O60603+Q15399)	pEC50	8.70

Hey, can you go through the list below and give me pEC50 for every item?
1. O=C(NCCc1ccc(F)cc1)[C@@H]1CN(C(=O)c2ccc(C(=O)N3C[C@@H](C(=O)NCCc4ccc(F)cc4)[C@H](C(=O)NCCc4ccc(F)cc4)C3)c(O)c2)C[C@H]1C(=O)NCCc1ccc(F)cc1
2. CCCCCCNC(=O)[C@@H]1CN(C(=O)c2ccc(C(=O)N3C[C@@H](C(=O)N[C@H]4C[C@@H]4c4ccccc4)[C@H](C(=O)N[C@@H]4C[C@H]4c4ccccc4)C3)cc2)C[C@H]1C(=O)NCCCCCC
3. CCCCCCCCNC(=O)[C@@H]1CN(C(=O)c2ccc(C(=O)N3C[C@@H](C(=O)N[C@H]4C[C@@H]4c4ccccc4)[C@H](C(=O)N[C@@H]4C[C@H]4c4ccccc4)C3)cc2)C[C@H]1C(=O)N[C@H]1C[C@@H]1c1ccccc1

6.89
7.30
9.48

Recorded result, O=C(N[C@H]1C[C@@H]1c1ccccc1)[C@@H]1CN(C(=O)c2ccc(C(=O)N3C[C@@H](C(=O)N[C@H]4C[C@@H]4c4ccccc4)[C@H](C(=O)N[C@H]4C[C@@H]4c4ccccc4)C3)c(O)c2)C[C@H]1C(=O)N[C@H]1C[C@@H]1c1ccccc1 , pEC50: 7.70

Data provenance is ChEMBL document CHEMBL5226282.
